# ASSAY NOTES: qHTS assay to identify small molecule antagonists of the androgen receptor (AR) signaling pathway using the MDA cell line in the presence of 0.5 nM R1881 - cell viability counter screen (AID 1259242); note: % is set by controls: 0 for no effect and ±100 for the full control effect; nearly all actives have a fitted effect of over 45% in size
# CONDITION LABEL: MDA-kb2 viability, CellTiter-Fluor protease fluorescence, 16 h; series mostly up to 92.4 µM
Records with an inconclusive call do not appear. The source made the active and inactive calls. Calls come from the whole dose curve; as a rule, active = well fitted cell-killing curve with a large enough effect in the repeat runs; inconclusive = weak or mixed curves, or effect the other way; inactive = flat fitted curve, though single readings scatter.

COMPOUND	viability change, negative = cytotoxic
NC(N)=NCCC[C@H](N)C(=O)O	3.68% [at 8.39 µM] (inactive)
CN(C)c1ccc(C(c2ccccc2)c2ccc(N(C)C)cc2)cc1	inactive
Nc1ccccc1S(=O)(=O)c1ccccc1	inactive
CCCCC(CC)COC(=O)COc1ccc(Cl)cc1Cl (stereo not given)	inactive
Cc1oc(-c2ccccc2)nc1CCOc1cccc2c1ccn2CCC(=O)O	inactive
CCOC(=O)COC(=O)c1cc(Oc2ccc(C(F)(F)F)cc2Cl)ccc1[N+](=O)[O-]	inactive
Cc1cccc(Nc2ccccc2)c1	inactive
O=C(O)c1ccccc1Cl	inactive
O=C(O)C1(C(=O)O)CCC1.[NH2-].[NH2-].[Pt+2]	inactive
O=C(O)c1ccco1	inactive
C[C@@H]1C[C@H]2O[C@@]3(O[C@@H]2C(C)(C)O)[C@H](O)[C@@]2(C)[C@@H]4CC[C@H]5C(C)(C)[C@@H](O[C@@H]6OC[C@@H](O)[C@H](O)[C@H]6O)CC[C@@]56C[C@@]46CC[C@]2(C)[C@@H]13	inactive
C#C[C@]1(O)CC[C@H]2[C@@H]3CCc4cc(OC5CCCC5)ccc4[C@H]3CC[C@@]21C	inactive
COC(=O)C1=C(C)NC(COC(N)=O)=C(C(=O)OC(C)C)C1c1cccc(Cl)c1Cl (stereo not given)	inactive
c1ccc(C(O[C@H]2CCCN(CCc3ccc4c(c3)OCO4)C2)c2ccccc2)cc1	inactive
CC(C)O.CC(C)O.CCOC(=O)/C=C(\C)O.CCOC(=O)/C=C(\C)O.[Ti]	inactive
